# assay-target: T1, human hepcidin (mature, 25 amino acids) (human, mono-biotinylated in the ELISAs and on the KinExA beads (site not stated); unlabelled in solution and on the BIAcore chip)
# T1 construct: the form is named in each assay field; also called rhuHepc; rhHepc
# T1 peptide: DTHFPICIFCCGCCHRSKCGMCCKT
# experimental-details: ELISA, mono-biotinylated human hepcidin on Neutravidin plate, pH 7.4
This section presents binders with their documented EC50 values.
State the answer as a number, implicitly in ng/mL.

>>> numeric_result("antibody 18B11 (antibody, V domains shown, Human antibody from Xenomouse IgG2 or IgG4 mice; also called 181311) VH: QVQLQQWGAGPLKPSETLSLTCAVYNGSFSGYYWSWIRQPPGKGLEWIGDINHSGNTKYNPSLKSRVTISVDTSKNQFSLKLSSVTAADTAVYYCARGDFWSGFDWFDPWGQGTLVTVSS VL: QSALTQPASVSGSPGQSITISCTGTSSNVGSYNLVSWYQQHPGKAPKLMISEVSKRPSGLSNRFSGSKSGNTASLTISGLQAEDEADYYCCSYAGSSTLIFGGGTKLTVL")
2.7
>>> numeric_result("15E1 A99H (antibody, V domains shown, Histidine mutant of 15E1, transiently expressed in 293-6E cells; constant regions as in wild-type 15E1; also called A99H (heavy chain)) VH: QVQLVESGGGVVQPGRSLRLSCAASGFTFSSYGMHWVRQAPGKGLEWVAVIWYAESNKYYADSVKGRFTISRDNSKNTLYLQMNSLRAEDTAVYYCARHQEGIAPDAFDIWGQGTMVTVSS VL: SYELTQPPSVSVSPGQTATITCSGDKLGERYACWYQQRPGQSPVLVIYQDSKRPSGIPERFSGSNSGNTATLTISGTQAMDEADYFCQAWYSSTNVLFGGGTKLTVL")
4.1
>>> numeric_result("15E1 L27H (antibody, V domains shown, Histidine mutant of 15E1, transiently expressed in 293-6E cells; constant regions as in wild-type 15E1; also called L27H (light chain)) VH: QVQLVESGGGVVQPGRSLRLSCAASGFTFSSYGMHWVRQAPGKGLEWVAVIWYAESNKYYADSVKGRFTISRDNSKNTLYLQMNSLRAEDTAVYYCARAQEGIAPDAFDIWGQGTMVTVSS VL: SYELTQPPSVSVSPGQTATITCSGDKHGERYACWYQQRPGQSPVLVIYQDSKRPSGIPERFSGSNSGNTATLTISGTQAMDEADYFCQAWYSSTNVLFGGGTKLTVL")
4.5

Qu. Reported EC50 for 15E1 N57H (antibody, V domains shown, Histidine mutant of 15E1, transiently expressed in 293-6E cells; constant regions as in wild-type 15E1; also called N57H (heavy chain)) VH: QVQLVESGGGVVQPGRSLRLSCAASGFTFSSYGMHWVRQAPGKGLEWVAVIWYAESHKYYADSVKGRFTISRDNSKNTLYLQMNSLRAEDTAVYYCARAQEGIAPDAFDIWGQGTMVTVSS VL: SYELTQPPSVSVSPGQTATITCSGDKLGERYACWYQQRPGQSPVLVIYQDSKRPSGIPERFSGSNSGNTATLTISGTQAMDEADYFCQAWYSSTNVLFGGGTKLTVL : what is it?
Ans. 1.8
